meta.source: patent US20240301052A1

- Assay System: T1, human SLC34A2 (human, UniProt O95436 1-690)
- T1 construct: whole, on cells; also called human solute carrier 34 A2; NaPi2b
- T1 sequence (looked up): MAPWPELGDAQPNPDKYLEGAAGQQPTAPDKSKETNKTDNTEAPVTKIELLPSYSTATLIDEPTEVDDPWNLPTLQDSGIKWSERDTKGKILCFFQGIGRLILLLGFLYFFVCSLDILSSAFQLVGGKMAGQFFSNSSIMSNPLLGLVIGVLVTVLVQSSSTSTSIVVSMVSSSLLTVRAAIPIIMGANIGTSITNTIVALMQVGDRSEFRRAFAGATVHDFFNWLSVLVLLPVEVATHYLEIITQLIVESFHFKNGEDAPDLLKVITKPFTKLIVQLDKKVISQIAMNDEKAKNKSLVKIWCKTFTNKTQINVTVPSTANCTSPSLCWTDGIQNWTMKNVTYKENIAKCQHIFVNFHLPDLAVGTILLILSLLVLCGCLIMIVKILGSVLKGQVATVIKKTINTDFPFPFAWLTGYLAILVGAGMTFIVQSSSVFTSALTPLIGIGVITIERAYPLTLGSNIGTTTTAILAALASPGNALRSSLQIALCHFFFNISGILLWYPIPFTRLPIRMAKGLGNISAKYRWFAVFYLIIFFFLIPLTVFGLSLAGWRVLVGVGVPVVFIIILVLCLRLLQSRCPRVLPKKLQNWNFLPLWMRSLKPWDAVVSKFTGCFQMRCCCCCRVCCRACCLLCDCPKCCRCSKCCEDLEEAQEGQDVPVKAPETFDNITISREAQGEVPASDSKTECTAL
- Assay Protocol: FACS, RMG-1 cells
Measured Quantity: Top (MFI)
Kindly answer with a numeric value in MFI, unit omitted.

# input Name the reported Top value associated with the binder 63A11D5B4.p1.z5 hIgG1 (antibody, V domains shown, humanized hIgG1) VH: QVQLVQSGAEVKKPGASVKVSCKTSGYTFITYNMHWVRQAPGQGLEWIGAIYPGSGDTSYNQKFKGRVTMTADTSTSTVYMELSSLRSEDTAVYYCSISTIITTGAVDYWGQGTLVTVSS VL: DIQMTQSPSSLSASVGDRVTITCKASQDVGTAVAWYQQKPGKVPKLLIYWTSTRHTGVPSRFSGSGSGTDFTLTISSLQPEDVATYYCQQYSRIPLTFGGGTKVEIK
# output 11800

# input Looking for the measured Top of 30H9B8F9.p1.z5 hIgG1 (antibody, V domains shown, humanized hIgG1) VH: QVQLVQSGAEVKKPGASVKVSCKTSGYTFTTNNMHWVRQAPGQGLEWIGAIYPGSGATAYNQKFKGRVTMTADTSTSTVYMELSSLRSEDTAVYYCARGMYGHGAMDYWGQGTLVTVSS VL: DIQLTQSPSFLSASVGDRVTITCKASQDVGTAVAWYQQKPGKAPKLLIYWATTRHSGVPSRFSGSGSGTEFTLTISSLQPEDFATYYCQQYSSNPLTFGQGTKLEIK , can you help?
# output 10900

# input Using the record for xi62G10E4G8 hIgG1 (antibody, V domains shown, chimeric, hIgG1) VH: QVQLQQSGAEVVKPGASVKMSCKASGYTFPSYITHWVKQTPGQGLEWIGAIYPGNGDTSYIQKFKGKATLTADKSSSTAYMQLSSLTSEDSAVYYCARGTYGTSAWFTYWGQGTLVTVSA VL: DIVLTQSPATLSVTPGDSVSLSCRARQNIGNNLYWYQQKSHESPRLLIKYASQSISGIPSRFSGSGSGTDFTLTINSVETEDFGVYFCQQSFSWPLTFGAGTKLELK , report its Top.
# output 11300

# input Tell me the measured Top of 63A11D5B4 VH_P1/VL hIgG1 (antibody, V domains shown, PTM-derisked chimeric, hIgG1; that P1 is the SG version follows from the humanized .p1 chains; also called 63A11D5B4.p1 hIgG1) VH: QVQLQQPGAELVKPGASVKMSCRTSGYTFITYNMHWVKQTPGQGREWIGAIYPGSGDTSYNQKFKGKATLTADKSSSTAYMQLNSLTSEDSAVYYCSISTIITTGAVDYWGQGTSVTVAS VL: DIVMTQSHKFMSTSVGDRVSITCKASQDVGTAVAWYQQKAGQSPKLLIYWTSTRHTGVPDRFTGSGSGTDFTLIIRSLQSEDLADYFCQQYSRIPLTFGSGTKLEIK , please.
# output 11700

# input // lookup Top for 91C9F1.p1.z7 hIgG1 (antibody, V domains shown, humanized hIgG1) VH: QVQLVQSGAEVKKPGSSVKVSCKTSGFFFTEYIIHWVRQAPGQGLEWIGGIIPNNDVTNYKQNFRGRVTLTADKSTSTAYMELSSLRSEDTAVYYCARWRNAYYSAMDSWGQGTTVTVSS VL: DIQVTQSPSSLSTSVGDRVTITCTASQDVGTAVAWYQQKPGKSPKLLIYWASTRHTGVPERFTGSGSGTDFTLTISSVQPEDVATYFCQQYRTSPLTFGVGTKVEIK
# output 9720

# input Please look up its Top: 62G10E4G8 VH_P3/VL hIgG1 (antibody, V domains shown, PTM-derisked chimeric, hIgG1; that P3 is the NA version follows from the humanized .p3 chains; also called 62G10E4G8.p3 hIgG1) VH: QVQLQQSGAEVVKPGASVKMSCKASGYTFPSYITHWVKQTPGQGLEWIGAIYPGNADTSYIQKFKGKATLTADKSSSTAYMQLSSLTSEDSAVYYCARGTYGTSAWFTYWGQGTLVTVSA VL: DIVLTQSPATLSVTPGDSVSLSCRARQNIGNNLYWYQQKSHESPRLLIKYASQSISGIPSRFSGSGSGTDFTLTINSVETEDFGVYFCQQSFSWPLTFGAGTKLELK
# output 11200

# input Any idea what Top was measured for 30H9B8F9.p1.z6 hIgG1 (antibody, V domains shown, humanized hIgG1) VH: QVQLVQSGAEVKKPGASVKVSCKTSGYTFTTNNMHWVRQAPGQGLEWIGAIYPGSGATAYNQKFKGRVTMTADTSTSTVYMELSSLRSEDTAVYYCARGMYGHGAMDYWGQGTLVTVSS VL: DIQLTQSPSFLSASVGDRVTITCKASQDVGTAVAWYQQKPGKSPKLLIYWATTRHSGVPDRFSGSGSGTEFTFTISSLQPEDFATYFCQQYSSNPLTFGQGTKLEIK ?
# output 10400
